test: Toxicity liver stage against HepG2, at 10uM
Assay type: cell-based
Set-up: test concentration 10 uM, cell line HepG2-A16-CD81EGFP
condition-summary: human, HepG2-A16-CD81EGFP cells; read-out: INHIBITION
property-measured: cytotoxicity at 10 µM (%)
Enter your answer as a number in %; do not include the unit.

Cc1nn2c(N3CCC(C#N)CC3)cc(-c3ccccc3)nc2c1C :: -8.6
Cc1cnc(C)c(-c2cc(O)c3c(c2)CN(c2ncccn2)CCO3)n1 :: 6.13
COC(=O)[C@H](C)NC(=O)c1nc(C2CC2)n(-c2ccccc2Cl)n1 :: -1.76
CC(C)NC(=O)C1CN(C(=O)Nc2ccc(F)cc2)CC12CCOCC2 (stereo not drawn) :: -80.9
COc1ccc(CNCc2ccc(N3CCCCC3)nc2)cc1OC :: 1.92
Cc1cc(CN(CC(N)=O)CC(C)C)no1 :: 3.72
CCOCc1cnc2n1CCN(C(=O)Cc1ccccn1)C2C (stereo not drawn) :: 8.04
Cc1cc(C)n(C2CCCN(C(=O)Cc3cccc(F)c3)C2)n1 (stereo not drawn) :: -8.09
O=C(CN1CCOC(CNc2cccnn2)C1)NCc1cccs1 (stereo not drawn) :: -14
OCCN1CCOC2(CCCN(c3ncc(F)cn3)C2)C1 (stereo not drawn) :: 5.98

Give cytotoxicity at 10 µM for `Cc1c(CCC(=O)Nc2ccc(Cl)cn2)cnn1C`
0.678

Give cytotoxicity at 10 µM for `CC(C)(C)N1CCN(C(=O)Nc2cc(C(F)(F)F)c[nH]c2=O)CC1`
5.08

Give cytotoxicity at 10 µM for CCC(C)NC(=O)c1ccc(-c2ccco2)[nH]c1=O (stereo not drawn)
-5.05

Give cytotoxicity at 10 µM for CCc1ccc(OCC(O)CN2CCN(CCO)CC2)cc1 (stereo not drawn)
-11.9

Give cytotoxicity at 10 µM for Cn1nccc1-c1cccc(CC2CCN(S(C)(=O)=O)C2)n1 (stereo not drawn)
4.54

Give cytotoxicity at 10 µM for Cc1cc(NCC2CCN(c3ccccc3)C2)n2ncnc2n1 (stereo not drawn)
67

Give cytotoxicity at 10 µM for `COc1ccc(CC(=O)N2CCN(C)c3ncccc3C2)cc1`
-5.79

----------
Entries and their measured cytotoxicity at 10 µM follow.
test: Toxicity liver stage against HepG2, at 10uM
Format: cell-based
Set-up: test concentration 10 uM, cell line HepG2-A16-CD81EGFP
condition-summary: human, HepG2-A16-CD81EGFP cells; read-out: INHIBITION
Enter your answer as a number in %; do not include the unit.

CN(C)CCNC(=O)c1ccc2c(-c3nccs3)noc2c1 :: 9.28
Cc1ccc(CN2CCN(C3CCC3)CC2CCO)o1 (centres undefined) :: -2.46
Cc1nc(N)nc(C)c1CC(=O)N1CCC2(CC1)OCCCC2O (centres undefined) :: -1.8

Give cytotoxicity at 10 µM for `COc1ccccc1C(=O)N1CCC(O)(c2cccc(C)c2C)CC1`
12.1

Give cytotoxicity at 10 µM for Cn1nnc2c1C(COCC1CC1)CN(C(=O)[C@H]1CCCO1)C2 (some centres undefined)
-8.01

Give cytotoxicity at 10 µM for COc1cccc(-c2cc(C3CCCNC3)ccn2)c1 (centres undefined)
0.207

----------
Entries and their measured cytotoxicity at 10 µM follow.
test: Toxicity liver stage against HepG2, at 10uM
Type: cell-based
Parameters: test concentration 10 uM, cell line HepG2-A16-CD81EGFP
condition-summary: human, HepG2-A16-CD81EGFP cells; read-out: INHIBITION
Enter your answer as a number in %; do not include the unit.

O=C(c1ccoc1)N1CCn2nc(CN3CCSCC3)cc2C1 :: -57.8
CC(C)=CCN1C(=O)[C@@H]2CC[C@H]1CN(Cc1cccnc1N)C2 :: 12.3
O=C(CCn1nc(-c2cccs2)oc1=O)Nc1cccc(F)c1 :: -5.21

Give cytotoxicity at 10 µM for `COC(=O)N1CC(C)=C(C)CN1C(=O)Nc1ccc(Cl)c(Cl)c1`
-1.53

Give cytotoxicity at 10 µM for `C[C@H]1C[C@H]2CN(C(=O)CCOc3ccccc3)CC[C@H]2O1`
-69.3

Give cytotoxicity at 10 µM for `N#Cc1ccc(SCCCO)c(F)c1`
5.11

----------
test: Toxicity liver stage against HepG2, at 10uM
Format: cell-based
Design: test concentration 10 uM, cell line HepG2-A16-CD81EGFP
condition-summary: human, HepG2-A16-CD81EGFP cells; read-out: INHIBITION
property-measured: cytotoxicity at 10 µM (%)
Enter your answer as a number in %; do not include the unit.

COCCOc1cccc(CNCc2c(C)nn(C)c2N(C)C)c1 :: -7.19
COC(=O)c1ncccc1N1CCCC1 :: -3.1
Cn1cc(C[C@H]2[C@H](O)CCN2CC2CC2)cn1 :: -0.516
CC(=O)c1cccc(NC(=O)N2CCCCC2CN2CCCC2=O)c1 (stereo unspecified) :: 0.582
N#Cc1cccc(CS(=O)(=O)NC(Cc2ccccc2)C(N)=O)c1 (stereo unspecified) :: 9.16

Let's switch to this compound now.
Give cytotoxicity at 10 µM for `CC(C)OCCCNC(=O)CS(=O)(=O)Cc1ccc(C(C)(C)C)cc1`
4.92

----------
Entries and their measured cytotoxicity at 10 µM follow.
test: Toxicity liver stage against HepG2, at 10uM
Assay type: cell-based
Design: test concentration 10 uM, cell line HepG2-A16-CD81EGFP
condition-summary: human, HepG2-A16-CD81EGFP cells; read-out: INHIBITION
Enter your answer as a number in %; do not include the unit.

Consider the reported cytotoxicity at 10 µM for these compounds:
COc1ccc2nnc(CCCC(=O)NCc3cccn3C)n2n1 :: 3.85
Cc1n[nH]c(-c2ccc(NC(=O)C(C)N3CCN(C)CC3)cc2)n1 (stereo unspecified) :: 6.03
Cc1cc2c(=O)n3c(nc2s1)CCN(C(=O)c1ccnn1C(C)C)CC3 :: -6.46

Give cytotoxicity at 10 µM for O=C1NC2(CCN(C(=O)Cc3ccsc3)CC2)CC1c1ccncc1 (stereo unspecified)
5.06

Give cytotoxicity at 10 µM for `CCN(CC(=O)Nc1cc(Cl)ccc1C)C(=O)c1cnccn1`
-0.12

Give cytotoxicity at 10 µM for COc1cc(OC)cc(N2CCC(NCc3occc3C)C2=O)c1 (stereo unspecified)
0.995

Give cytotoxicity at 10 µM for O=C1CC(N(C(=O)c2ccc3[nH]c4c(c3c2)CCCC4)C2CC2)C(=O)N1 (stereo unspecified)
-3.79

Give cytotoxicity at 10 µM for Oc1cccc(-c2cc(C3CCN(Cc4cncnc4)C3)ccn2)c1 (stereo unspecified)
5.06

----------
test: Toxicity liver stage against HepG2, at 10uM
Type: cell-based
Design: test concentration 10 uM, cell line HepG2-A16-CD81EGFP
condition-summary: human, HepG2-A16-CD81EGFP cells; read-out: INHIBITION
property-measured: cytotoxicity at 10 µM (%)
Enter your answer as a number in %; do not include the unit.

CC(C)c1noc(C(C)S(=O)(=O)Cc2nc(C3CC3)no2)n1 (centres undefined) :: -0.828

Give cytotoxicity at 10 µM for `O=C(NCCc1ccncc1)c1ccc(N2CCOCC2)cc1`
-5.08

Give cytotoxicity at 10 µM for `Cc1noc(C)c1CN(C)C(=O)c1cnc(C2CC2)nc1O`
-4.65

Give cytotoxicity at 10 µM for Cc1cc(N2CCCC(N(C)C)C2)n2nc(C)cc2n1 (centres undefined)
-53.5

Give cytotoxicity at 10 µM for CCn1cc(S(=O)(=O)NCC(c2ccccc2)N2CCOCC2)c(C)n1 (centres undefined)
2.76

Give cytotoxicity at 10 µM for `CSc1ccccc1C(=O)NCc1cc2n(n1)CCCN(CC(C)C)C2`
3.05

Give cytotoxicity at 10 µM for Cc1cc(CN2CCOC(Cn3nc(C)cc3C)C2)on1 (centres undefined)
-5.81

Give cytotoxicity at 10 µM for `Cc1ncsc1C(=O)NC1CCN(Cc2ccc(C(N)=O)cc2)CC1`
-15

Give cytotoxicity at 10 µM for CCc1nnc2n1CCN(C(C(N)=O)c1ccc(F)cc1)C2 (centres undefined)
-8.13

Give cytotoxicity at 10 µM for CCC(C(=O)NC1(CN2CCOCC2)CCCC1)n1cccn1 (centres undefined)
4.52

Give cytotoxicity at 10 µM for `CC(C)=CCn1ncc(N2CCOCC2)cc1=O`
-9.96

Give cytotoxicity at 10 µM for `O=C1[C@@H]2CC[C@@H](CN(S(=O)(=O)c3ccccc3)C2)N1Cc1cscn1`
-6.23

----------
Entries and their measured cytotoxicity at 10 µM follow.
test: Toxicity liver stage against HepG2, at 10uM
Type: cell-based
Set-up: test concentration 10 uM, cell line HepG2-A16-CD81EGFP
condition-summary: human, HepG2-A16-CD81EGFP cells; read-out: INHIBITION
Enter your answer as a number in %; do not include the unit.

Consider the reported cytotoxicity at 10 µM for these molecules:
COC(=O)C(CNC(=O)Nc1nncs1)Cc1ccc(O)cc1 (configuration not stated) :: 16.9
COc1ccc(CCC(=O)N2CCNCC2C(=O)N2CCOCC2)cc1 (configuration not stated) :: 4.34
CCC1CN(CC(=O)N2CCC2)CCN1CCOC (configuration not stated) :: -9.78
CN(Cc1ncc[nH]1)C(=O)C(C)(C)NC(=O)c1cccs1 :: 11.6

Give cytotoxicity at 10 µM for `Cc1cc(-c2nccs2)nc(C2CCN(Cc3ccncc3)CC2)n1`
8.6

Give cytotoxicity at 10 µM for `COc1ccc(S(=O)(=O)N2CCn3cnc(COCC4CC4)c3C2)cc1`
-0.262

Give cytotoxicity at 10 µM for `COc1ccc(CN2C[C@H]3C[C@H](CN(C)C)O[C@H]3C2)cc1`
-7.4

Give cytotoxicity at 10 µM for CCCS(=O)(=O)NC1CCc2c(ccc(=O)n2CC2CC2)C1 (configuration not stated)
-67.3

Give cytotoxicity at 10 µM for `Cn1ccnc1CN1CCC(c2nc3ccccc3n2C)CC1`
1.42

Give cytotoxicity at 10 µM for `c1coc(-c2nc(CNCCn3cccn3)cs2)c1`
-13.8

Give cytotoxicity at 10 µM for `O=C(NCC1CC1)c1cc(Br)cnc1N1CCCCC1`
3.1

Give cytotoxicity at 10 µM for `Cc1cnccc1CN(C)Cc1c[nH]nc1-c1ccc(F)cc1F`
-5.93
